Attribution: patent US12318385B2

Assay: Solubility of compound represented by formula I in different solvents
Assay type: physicochemical
Settings: organic solvent or mixture, thermodynamic from solid; Acetone, 25° C.±2° C.; read-out: Approximate Solubility
property: solubility at 30 min (µg/mL)
Answers are plain numbers, in µg/mL.

Look up solubility at 30 min: O=C(c1cc(Cc2n[nH]c(=O)c3ccccc23)ccc1F)N1CCn2nc(C(F)(F)F)nc2C1 4960

---

Test: Solubility of compound represented by formula I in different solvents
Format: physicochemical
Conditions: aqueous buffer, thermodynamic from solid; Phosphate Buffer pH 6.8, 25° C.±2° C.; read-out: Approximate Solubility
property: solubility at 30 min
Lab note: write values as number then unit, every time.

Look up solubility at 30 min: O=C(c1cc(Cc2n[nH]c(=O)c3ccccc23)ccc1F)N1CCn2nc(C(F)(F)F)nc2C1 [Compound represented by formula I] 0.59 µg/mL

---

Test: Solubility of compound represented by formula I in different solvents
Type: physicochemical
Conditions: organic solvent or mixture, thermodynamic from solid; Tetrahydrofuran, 25° C.±2° C.; read-out: Approximate Solubility
property: solubility at 30 min
Lab note: write values as number then unit, every time.

Look up solubility at 30 min: O=C(c1cc(Cc2n[nH]c(=O)c3ccccc23)ccc1F)N1CCn2nc(C(F)(F)F)nc2C1 8550 µg/mL

---

Test: Solubility of compound represented by formula I in different solvents
Assay type: physicochemical
Conditions: aqueous with cosolvent or surfactant or cyclodextrin, thermodynamic from solid; 5% Polysorbate 80 Aqueous Solution, 25° C.±2° C.; read-out: Approximate Solubility
property: solubility at 30 min (mg/mL)
Answers are plain numbers, in mg/mL.

Look up solubility at 30 min: O=C(c1cc(Cc2n[nH]c(=O)c3ccccc23)ccc1F)N1CCn2nc(C(F)(F)F)nc2C1 0.0195

---

Assay: Solubility of compound represented by formula I in different solvents
Type: physicochemical
Conditions: organic solvent or mixture, thermodynamic from solid; Anhydrous Ethanol, 25° C.±2° C.; read-out: Approximate Solubility
property: solubility at 30 min (µg/mL)
Answers are plain numbers, in µg/mL.

Look up solubility at 30 min: O=C(c1cc(Cc2n[nH]c(=O)c3ccccc23)ccc1F)N1CCn2nc(C(F)(F)F)nc2C1 [Compound represented by formula I] 458

---

Test: Solubility of compound represented by formula I in different solvents
Format: physicochemical
Conditions: simulated gastric fluid, thermodynamic from solid; 0.1 mol/L Hydrochloric Acid, 25° C.±2° C.; read-out: Approximate Solubility
Method: Referring to tests under the General Notices, Volume II, Chinese Pharmacopoeia 2010, excessive compounds represented by formula I which were grinded to fine powder were weighed and transferred in a certain amount of solvent (25° C.±2° C.), and shaken vigorously for 30 s every 5 min. The dissolution of the drug was observed within 30 min. Then the solution was filtered, the initial filtrate was discarded, and the concentration of the successive filtrate was tested. The solubility was calculated.
property: solubility at 30 min

Look up solubility at 30 min: O=C(c1cc(Cc2n[nH]c(=O)c3ccccc23)ccc1F)N1CCn2nc(C(F)(F)F)nc2C1 0.78 µg/mL
